# method: Stented artery sirolimus concentration (Example 34)
# Format: in vivo, porcine
# condition label: pig, stented arterial tissue, other: coated stent implanted in coronary artery, 135 micrograms per stent; day 1; porcine; coated stent 135 micrograms sirolimus; read-out: Stented artery sirolimus concentration (tissue within stented segments)
result type: concentration at 1 day

entry_smiles=CO[C@H]1C[C@@H]2CC[C@@H](C)[C@@](O)(O2)C(=O)C(=O)N2CCCC[C@H]2C(=O)O[C@H]([C@H](C)C[C@@H]2CC[C@@H](O)[C@H](OC)C2)CC(=O)[C@H](C)/C=C(\C)[C@@H](O)[C@@H](OC)C(=O)[C@H](C)C[C@H](C)/C=C/C=C/C=C/1C readout_value="19600 ng/g"

----------
# method: Stented artery sirolimus concentration (Example 34)
# Type: in vivo, porcine
# condition label: pig, stented arterial tissue, other: coated stent implanted in coronary artery, 135 micrograms per stent; day 3; porcine; coated stent 135 micrograms sirolimus; read-out: Stented artery sirolimus concentration (tissue within stented segments)
# Procedure: Pharmacokinetic studies were performed on coated stents prepared and implanted as noted in Example 32. […] The coating encapsuled each of the stents. Complete balloon deflation was verified with fluoroscopy. Subjects were euthanized at the testing time points, and the tissue adjacent the stent (for non-limiting example, tissue surrounding the stent—referred to generally as arterial tissue) was extracted for analysis of the amount of pharmaceutical agent therein. […]
result type: concentration at 3 day (ng/g)

entry_smiles=CO[C@H]1C[C@@H]2CC[C@@H](C)[C@@](O)(O2)C(=O)C(=O)N2CCCC[C@H]2C(=O)O[C@H]([C@H](C)C[C@@H]2CC[C@@H](O)[C@H](OC)C2)CC(=O)[C@H](C)/C=C(\C)[C@@H](O)[C@@H](OC)C(=O)[C@H](C)C[C@H](C)/C=C/C=C/C=C/1C output_unit=ng/g readout_value=21400

----------
# method: Stented artery sirolimus concentration (Example 34)
# Format: in vivo, porcine
# condition label: pig, stented arterial tissue, other: coated stent implanted in coronary artery, 135 micrograms per stent; day 21; porcine; coated stent 135 micrograms sirolimus; read-out: Stented artery sirolimus concentration (tissue within stented segments)
result type: concentration at 21 day

molecule="CO[C@H]1C[C@@H]2CC[C@@H](C)[C@@](O)(O2)C(=O)C(=O)N2CCCC[C@H]2C(=O)O[C@H]([C@H](C)C[C@@H]2CC[C@@H](O)[C@H](OC)C2)CC(=O)[C@H](C)/C=C(\\C)[C@@H](O)[C@@H](OC)C(=O)[C@H](C)C[C@H](C)/C=C/C=C/C=C/1C [rapamycin]" readout_value="173000 ng/g"

----------
# method: Stented artery sirolimus concentration (Example 34)
# Type: in vivo, porcine
# condition label: pig, stented arterial tissue, other: coated stent implanted in coronary artery, 135 micrograms per stent; day 90; porcine; coated stent 135 micrograms sirolimus; read-out: Stented artery sirolimus concentration (tissue within stented segments)
result type: concentration at 90 day (ng/g)

compound="CO[C@H]1C[C@@H]2CC[C@@H](C)[C@@](O)(O2)C(=O)C(=O)N2CCCC[C@H]2C(=O)O[C@H]([C@H](C)C[C@@H]2CC[C@@H](O)[C@H](OC)C2)CC(=O)[C@H](C)/C=C(\\C)[C@@H](O)[C@@H](OC)C(=O)[C@H](C)C[C@H](C)/C=C/C=C/C=C/1C [rapamycin]" readout_value=251000

----------
# method: Stented artery sirolimus concentration (Example 34)
# Format: in vivo, porcine
# condition label: pig, stented arterial tissue, other: coated stent implanted in coronary artery, 135 micrograms per stent; day 45; porcine; coated stent 135 micrograms sirolimus; read-out: Stented artery sirolimus concentration (tissue within stented segments)
# Procedure: Pharmacokinetic studies were performed on coated stents prepared and implanted as noted in Example 32. […] The coating encapsuled each of the stents. Complete balloon deflation was verified with fluoroscopy. Subjects were euthanized at the testing time points, and the tissue adjacent the stent (for non-limiting example, tissue surrounding the stent—referred to generally as arterial tissue) was extracted for analysis of the amount of pharmaceutical agent therein. […]
result type: concentration at 45 day

compound="CO[C@H]1C[C@@H]2CC[C@@H](C)[C@@](O)(O2)C(=O)C(=O)N2CCCC[C@H]2C(=O)O[C@H]([C@H](C)C[C@@H]2CC[C@@H](O)[C@H](OC)C2)CC(=O)[C@H](C)/C=C(\\C)[C@@H](O)[C@@H](OC)C(=O)[C@H](C)C[C@H](C)/C=C/C=C/C=C/1C [rapamycin]" readout_value="582000 ng/g"

----------
# method: Stented artery sirolimus concentration (Example 34)
# Assay type: in vivo, porcine
# condition label: pig, stented arterial tissue, other: coated stent implanted in coronary artery, 135 micrograms per stent; day 30; porcine; coated stent 135 micrograms sirolimus; read-out: Stented artery sirolimus concentration (tissue within stented segments)
result type: concentration at 30 day (ng/g)

entry_smiles=CO[C@H]1C[C@@H]2CC[C@@H](C)[C@@](O)(O2)C(=O)C(=O)N2CCCC[C@H]2C(=O)O[C@H]([C@H](C)C[C@@H]2CC[C@@H](O)[C@H](OC)C2)CC(=O)[C@H](C)/C=C(\C)[C@@H](O)[C@@H](OC)C(=O)[C@H](C)C[C@H](C)/C=C/C=C/C=C/1C result_type="concentration at 30 day" readout_value=565000

----------
# method: Stented artery sirolimus concentration (Example 34)
# Format: in vivo, porcine
# condition label: pig, stented arterial tissue, other: coated stent implanted in coronary artery, 135 micrograms per stent; day 14; porcine; coated stent 135 micrograms sirolimus; read-out: Stented artery sirolimus concentration (tissue within stented segments)
result type: concentration at 14 day (ng/g)

compound="CO[C@H]1C[C@@H]2CC[C@@H](C)[C@@](O)(O2)C(=O)C(=O)N2CCCC[C@H]2C(=O)O[C@H]([C@H](C)C[C@@H]2CC[C@@H](O)[C@H](OC)C2)CC(=O)[C@H](C)/C=C(\\C)[C@@H](O)[C@@H](OC)C(=O)[C@H](C)C[C@H](C)/C=C/C=C/C=C/1C [rapamycin]" readout_value=55900

----------
# method: Stented artery sirolimus concentration (Example 34)
# Format: in vivo, porcine
# condition label: pig, stented arterial tissue, other: coated stent implanted in coronary artery, 135 micrograms per stent; day 60; porcine; coated stent 135 micrograms sirolimus; read-out: Stented artery sirolimus concentration (tissue within stented segments)
result type: concentration at 60 day

entry_smiles=CO[C@H]1C[C@@H]2CC[C@@H](C)[C@@](O)(O2)C(=O)C(=O)N2CCCC[C@H]2C(=O)O[C@H]([C@H](C)C[C@@H]2CC[C@@H](O)[C@H](OC)C2)CC(=O)[C@H](C)/C=C(\C)[C@@H](O)[C@@H](OC)C(=O)[C@H](C)C[C@H](C)/C=C/C=C/C=C/1C readout_value="532000 ng/g"

Cited source for all entries: patent US20110257732A1
